Provenance of the data: the supplement of paper PMC9170038

- Tested on: MS2 coat protein
- PROCEDURE_TEXT: apparent KD of MS2 coat protein; designed switch direction (-1 OFF switch, 1 ON switch): 1; higher = weaker reporter binding
- APPLIED_CONDITIONS: Eterna round: R95; input ligand: FMN 200 uM
Label fulfilled when apparent KD of MS2 coat protein >= 30 nM; otherwise not fulfilled.

Solved cases below.
AUUAUACAUGAGGAUCACCCAUGUCAAUGUAGUCGAGGAUAUGGGUUGCUAUGAGGCGUACUAGAAGGCGAGGAGA [Mat - Same State 1 - Mod of JL - D17] (puzzle: Same State 1) = fulfilled
AGAGAACAUGAGGAUCACCCAUGUAAGAGAAGUGUAGGAUAUGUGAGGAGCAGAGGAGGAACAGAAGGACAUGGAG [JR_SS!_Sub072] (puzzle: Same State 1) = fulfilled
GUAGGACAUGAGGAUCACCCAUGUAGGAGGGAACGAGGAUAUGUGAUUAGCGAGGAGAGGACAGAAGGCGUGGUAG [JR_SS1_Sub025] (puzzle: Same State 1) = not fulfilled
UAGAGAGGAAGCGAGGAUAUCGUGGGAGGAACAUGAGGAUCACCCAUGUGUGAUGUUGAGAGGGACGAGAAGGCGCGGGAAAUUA [JR_SS2_Sub080] (puzzle: Same State 2) = fulfilled
UGUCCAGCCUGAGCUGGACAAAAGCAUGUACAUGAGGAUCACCCAUGUUCAUGUACAAGCUUUUUGCUCGUCUUAAA [salish99_208a_r3_030] (puzzle: Sensor for hsa-mir-208a) = fulfilled
GUAGAUGUAGAGGAGGAUAUUCAAUAGAGAACAUGAGGAUCACCCAUGUAAGAGAGAGAUGAUGGGAAGAAGGCUUAGAGAGAUG [Altered State 2-1 - Jieux - Same State 2] (puzzle: Same State 2) = fulfilled

Problem: apparent KD of MS2 coat protein >= 30 nM for AGAGCCGGCACUGAGGAUAUUCAUAUUAAAACAUGAGGAUCACCCAUGUAGGCCAGAAGGCCUUGGGAGAAGGCAGGUCGGCUCU [Mat - Same State 2 - Mod of UCT - D61] (puzzle: Same State 2) ?
Result: not fulfilled

Problem: Check this sequence for apparent KD of MS2 coat protein at or above 30 nM: CCGUGGUAACAUGAGGAUCACCCAUGUACAAGCUUUUUGCUCGUUGGAUCCGGCGCGCCCAUUAUGGGCGCGCCGGA [Nishu_Seq2] (puzzle: Sensor for hsa-mir-208a version 2)
Result: not fulfilled

Problem: Does apparent KD of MS2 coat protein meet or surpass 30 nM for GGAGCCUGCACUGAGGAUAUUCGUAGUGUAACAUGAGGAUCACCCAUGUGUCGCCGUAGCGACUGGGAGAAGGCAGUGCGGCUCG [JL-ss2-3.07 ViennaUCT mod] (puzzle: Same State 2) ?
Result: not fulfilled

====

- Tested on: MS2 coat protein
- PROCEDURE_TEXT: apparent KD of MS2 coat protein; designed switch direction (-1 OFF switch, 1 ON switch): -1; higher = weaker reporter binding
- APPLIED_CONDITIONS: Eterna round: R95; input ligand: microRNA oligo, concentration not stated
Everything with apparent KD of MS2 coat protein lower than 40 nM is label 0; everything else, including exactly 40 nM, is label 1.

Consider the worked cases shown below.
CCGGAAGUAGAGGAUAUAGGAGUCGAUAGACUCCUAGAAGGCUAUACAUGAGGAUCACCCAUGUGUCCUACCGG [Fiskers Ex 6 - 68] (puzzle: Exclusion 6) = label 0
UUUUUUGUUGUGAGGAUAUCGUUGUUGUUGUGGAUCGAGAAGGCACAUGAGGAUCACCCAUGUUUGUUGUGGUU [JR_BMOE4_Sub086] (puzzle: Brourd's mod of Exclusion 4) = label 1
AUUUAGAGAGGAUAUAUUAUGUGAAACAUGAGGAUCACCCAUGUAAUAUGAUGGAUAUAAAUAGAAGGCUCAUUUA [Mat - Exclusion 5 - JL mod - D24] (puzzle: Exclusion 5) = label 0

Please examine the following record next.
Problem: Is it the case that CGCUAGUCAGGAUAUACGAACAUGUCAAAAGACGUGAAGGGACAUGAGGAUCACCCAUGUAGAAGGGACUAGCA [salish99_ex2_r3_014] (puzzle: Exclusion 2) has apparent KD of MS2 coat protein reaching or exceeding 40 nM?
Result: label 0
